Values compiled from the supplement of paper PMC9112550.

System: Escherichia coli TOP10;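 also: peptides expressed intracellularly from a pBAD plasmid library in pooled LB shake-flask culture, induced with 0.3% L-arabinose, DNA abundance read by NGS, three biological replicates, DESeq2 with apeglm shrinkage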
Assay: shrunken log2 fold change of peptide-encoding DNA abundance (4.5 h post-induction vs induction); higher = less antimicrobial activity (less host growth inhibition)
Conditions: time post-induction: 4.5 h; library: site-saturation at positions 5, 18, 19, 20
ATTRIBUTE_MEASURED: shrunken log2 fold change
// return just the number, without any unit appended

Per the record, "RRIRERPPRLPRPRPRPGVNPRP" has shrunken log2 fold change of 0.0154

Per the record, "RRIRVRPPRLPRPRPRPHFMPRP" has shrunken log2 fold change of 1.55

Per the record, "RRIRPRPPRLPRPRPRPRHSPRP" has shrunken log2 fold change of -0.0642

Per the record, "RRIRIRPPRLPRPRPRPLHKPRP" has shrunken log2 fold change of -0.165

Per the record, "RRIRVRPPRLPRPRPRPVFSPRP" has shrunken log2 fold change of -0.176

Per the record, "RRIRSRPPRLPRPRPRPCYFPRP" has shrunken log2 fold change of -0.387

Per the record, "RRIRKRPPRLPRPRPRPPSHPRP" has shrunken log2 fold change of 0.543

Per the record, "RRIRCRPPRLPRPRPRPLLLPRP" has shrunken log2 fold change of -0.265

Per the record, "RRIRQRPPRLPRPRPRPVGTPRP" has shrunken log2 fold change of -0.0913

Per the record, "RRIRERPPRLPRPRPRPIDEPRP" has shrunken log2 fold change of 0.0844

Per the record, "RRIRMRPPRLPRPRPRPLRSPRP" has shrunken log2 fold change of 2.47

Per the record, "RRIRWRPPRLPRPRPRPVTEPRP" has shrunken log2 fold change of 0.361

Per the record, "RRIRGRPPRLPRPRPRPCGWPRP" has shrunken log2 fold change of 1.34

Per the record, "RRIRNRPPRLPRPRPRPFMWPRP" has shrunken log2 fold change of -0.134

Per the record, "RRIRERPPRLPRPRPRPNDSPRP" has shrunken log2 fold change of -0.0224
